Each recorded value in this set is attributed to ChEMBL document CHEMBL3046227.

System: HL-60
test.summary: Cytotoxicity against Homo sapiens (human) HL60 cells after 48 hr by MTT assay
Assay type: functional, cell-based
measurement.setup: HL-60, 48 h
pIC50: −log10 of the molar value.
measured.endpoint: pIC50

Some compounds with recorded pIC50:
- test.smiles: "C[C@H]1[C@@H](OCCNC(=O)Nc2ccc(Br)cc2)O[C@@H]2O[C@@]3(C)CC[C@H]4[C@H](C)CC[C@@H]1[C@@]24OO3"
  assayed.target: "HL-60"
  pIC50: "> 6.00"
- test.smiles: "C[C@H]1[C@@H](OCCNC(=O)Nc2ccc(Cl)cc2)O[C@@H]2O[C@@]3(C)CC[C@H]4[C@H](C)CC[C@@H]1[C@@]24OO3"
  assayed.target: "HL-60"
  pIC50: "> 6.00"
- test.smiles: "COc1ccc(NC(=O)NCCO[C@H]2O[C@@H]3O[C@@]4(C)CC[C@H]5[C@H](C)CC[C@@H]([C@H]2C)[C@@]35OO4)cc1"
  assayed.target: "HL-60"
  pIC50: 5.60
- test.smiles: "C[C@H]1[C@@H](OCCNC(=O)Nc2ccc(C(F)(F)F)cc2)O[C@@H]2O[C@@]3(C)CC[C@H]4[C@H](C)CC[C@@H]1[C@@]24OO3"
  assayed.target: "HL-60"
  pIC50: "> 6.00"
- test.smiles: "C[C@H]1[C@H](OCCNC(=O)Nc2ccc(Cl)cc2)O[C@@H]2O[C@@]3(C)CC[C@H]4[C@H](C)CC[C@@H]1[C@@]24OO3"
  assayed.target: "HL-60"
  pIC50: "> 6.00"

Then there is this compound:
For `C[C@H]1[C@H](OCCNC(=O)Nc2ccc(C(F)(F)F)cc2)O[C@@H]2O[C@@]3(C)CC[C@H]4[C@H](C)CC[C@@H]1[C@@]24OO3` , what is its reported pIC50? > 6.00
